- MEASUREMENT_DESCRIPTION: Solubility in water of tested drugs
- Assay type: physicochemical
- EXPERIMENTAL_SETUP: value obtained from testing
PROPERTY: solubility (mg/mL)
Give bare numbers, in mg/mL.

Recorded solubility (compound CC(C)(C)NCC(O)COc1cccc2c1CC(O)C(O)C2 (stereo not shown) [Nadolol, nadolol] ): 6.77
